- Assay protocol: Therapeutic index, ratio of EC50 for human BJ cells to EC50 for mouse B-ALL cells expressing wild type BCR-ABL
- Type: toxicity
- Settings: human BJ cells versus mouse B-ALL cells expressing wild type BCR-ABL; read-out: Ratio EC50
// values below are reported selectivity ratio

Examples from the recorded data:
[[record]]
compound = "CS(=O)(=O)c1ccc(-c2cccc3c2OC(CNC(=O)c2ccccc2F)C3)cc1 (configuration not stated)"
endpoint = "selectivity ratio"
result = "> 5"

[[record]]
compound = "CC(C)C(=O)Nc1ccc2oc(-c3ccc(C(C)(C)C)cc3)nc2c1"
endpoint = "selectivity ratio"
result = "> 9"


Given the entry `c1ccc2[nH]c(-c3ccc(-c4nc5ccccc5[nH]4)nc3)nc2c1` , report its measured selectivity ratio.
> 5

# selectivity ratio lookup, item `O=C(c1cc(-c2csc(-c3ccc(O)cc3)n2)c[nH]1)N1CCCC1`
> 11

====

We begin with a simple list: items and their reported pEC50.
- System: B-ALL
- Assay protocol: Antiproliferative activity against mouse B-ALL cells expressing wild type BCR-ABL assessed as reduction in cell viability after 72 hrs by CellTiter-Glo assay
- Type: functional, cell-based
In plain terms, pEC50 is the concentration in mol/L turned into minus its base-10 logarithm.

Some solved cases for reference:
[[record]]
molecule_smiles = "O=C(Cc1ccccc1)Nc1ccc(-c2nc3cc(NC(=O)Cc4ccccc4)ccc3[nH]2)cc1"
endpoint = "pEC50"
recorded_number = 6.20

[[record]]
molecule_smiles = "COc1ccc(O)c(C(=O)NCCc2ccc(-c3cnc(C)s3)cc2)c1"
endpoint = "pEC50"
recorded_number = 5.02


Which value of pEC50 has been reported for `COc1cc(-c2cc3ccccc3[nH]2)[nH]c1/C=C1\N=C(C)C=C1C` in the records?
5.91

====

Catalogue of pEC50 values
- System: KOPN-8
- Assay protocol: Antiproliferative activity against human KOPN8 assessed as reduction in cell viability after 72 hrs by CellTiter-Glo assay
- Assay type: functional, cell-based
- Settings: KOPN-8, 72 h
pEC50: −log10 of the molar value.

Consider the worked cases shown below.
[[record]]
molecule = "CCN(CC)c1ccc(-n2cnnc2-c2cccc(O)c2)cc1"
result = "< 4.31"

[[record]]
molecule = "CS(=O)(=O)c1ccc(-c2cccc3c2OC(CNC(=O)c2ccccc2F)C3)cc1 (stereo not drawn)"
result = "< 4.36"


Now, please, on to the next molecule.
Reported pEC50 for `O=C(c1cc(-c2csc(-c3ccc(O)cc3)n2)c[nH]1)N1CCCC1` : what is it?
< 4.36

====

- Assay protocol: Permeability of compound at pH 7.4 assessed as drug retention by PAMPA
- Format: ADME
Reported permeability is given for each of the following compounds.
Respond with a number, then the unit of measure.

[[record]]
compound = "O=C(Cc1ccccc1)Nc1ccc(-c2nc3cc(NC(=O)Cc4ccccc4)ccc3[nH]2)cc1"
endpoint = "permeability"
result = "74.6%"

[[record]]
compound = "NC(=O)N1c2ccccc2C=Cc2ccccc21 [CARBAMAZEPINE]"
endpoint = "permeability"
result = "21.9%"


Next:
Give the measured permeability of `CCCSc1ccc2nc(NC(=O)OC)[nH]c2c1` .
44.1%

====

- Assay protocol: Therapeutic index, ratio of EC50 for human BJ cells to EC50 for mouse B-ALL cells expressing wild type BCR-ABL
- Type: toxicity
- Settings: human BJ cells versus mouse B-ALL cells expressing wild type BCR-ABL; read-out: Ratio EC50
We begin with a simple list: items and their reported selectivity ratio.

[[record]]
molecule_smiles = "CCN(CC)c1ccc(-n2cnnc2-c2cccc(O)c2)cc1"
result = "> 24"

[[record]]
molecule_smiles = "COc1ccc(O)c(-c2cc(-c3ccc(Cl)cc3)[nH]n2)c1"
result = "> 5"


For the compound `COc1ccc(-c2[nH]nc(C)c2-c2ccc(OC)c(O)c2)c(O)c1` , what selectivity ratio is on record?
> 5
